biological target: T1, soluble human TLR3 extracellular domain (human, UniProt O15455 24-703); assay: ELISA, coated soluble hTLR3 extracellular domain, HRP-labeled anti-human IgG
T1 construct: also called hTLR3 extracellular domain; extracellular domain of human TLR3
# maps each entry to its EC50
A number alone suffices; assume µg/mL.

Observe how each entry below is paired with its result.
[
  {
    "BINDER": "human-adapted anti-TLR3 mAb HV7/LV5 (antibody, human IgG4, V domains shown, Human IgG4 (S228P, F234A, L235A), kappa; not shown: human kappa light chain constant region) VH: QVQLVQSGAEVKKPGSSVKVSCKASGGTFSTYWIHWVRQAPGQGLEWMGEINPNNGRINYNEKFKTRVTITADESTSTAYMELSSLRSEDTAVYYCARVGVMITTFPYWGRGTLVTVSS VL: DIQMTQSPSSLSASVGDRVTITCRASGNIHNYLAWYQQKPGKVPKLLIYNAKTLADGVPSRFSGSGSGTDFTLTISSLQPEDVATYYCQHFWSTPFTFGGGTKVEIK",
    "ENDPOINT NAME": "EC50",
    "U": "µg/mL",
    "QUANTITATIVE READOUT": 1.82
  },
  {
    "BINDER": "human-adapted anti-TLR3 mAb HV4/LV1 (antibody, human IgG4, V domains shown, Human IgG4 (S228P, F234A, L235A), kappa; not shown: human kappa light chain constant region) VH: QVQLVQSGAEVKKPGASVKVSCKASGYTFTTYWIHWVRQAPGQGLEWMGEINPNNGRINYNEKFKTRVTMTRDTSISTAYMELSRLRSDDTAVYYCARVGVMITTFPYWGQGTLVTVSS VL: DIQMTQSPSSLSASVGDRVTITCRASGNIHNYLAWYQQKPGKAPKLLIYNAKTLADGVPSRFSGSGSGTDFTLTISSLQPEDFATYYCQHFWSTPFTFGQGTKLEIK",
    "ENDPOINT NAME": "EC50",
    "U": "µg/mL",
    "QUANTITATIVE READOUT": 0.0291
  },
  {
    "BINDER": "human-adapted anti-TLR3 mAb HV5/LV3 (antibody, human IgG4, V domains shown, Human IgG4 (S228P, F234A, L235A), kappa; not shown: human kappa light chain constant region) VH: QVQLVQSGAEVKKPGASVKVSCKASGYTFTTYWIHWVRQATGQGLEWMGEINPNNGRINYNEKFKTRVTMTRNTSISTAYMELSSLRSEDTAVYYCARVGVMITTFPYWGQGTLVTVSS VL: DIQMTQSPSSLSASVGDRVTITCRASGNIHNYLAWYQQKPGKAPKRLIYNAKTLADGVPSRFSGSGSGTEFTLTISSLQPEDFATYYCQHFWSTPFTFGQGTKLEIK",
    "ENDPOINT NAME": "EC50",
    "U": "µg/mL",
    "QUANTITATIVE READOUT": 0.0289
  },
  {
    "BINDER": "human-adapted anti-TLR3 mAb HV5/LV7 (antibody, human IgG4, V domains shown, Human IgG4 (S228P, F234A, L235A), kappa; not shown: human kappa light chain constant region) VH: QVQLVQSGAEVKKPGASVKVSCKASGYTFTTYWIHWVRQATGQGLEWMGEINPNNGRINYNEKFKTRVTMTRNTSISTAYMELSSLRSEDTAVYYCARVGVMITTFPYWGQGTLVTVSS VL: DIQMTQSPSSLSASVGDRVTITCRASGNIHNYLAWFQQKPGKAPKSLIYNAKTLADGVPSRFSGSGSGTDFTLTISSLQPEDFATYYCQHFWSTPFTFGQGTKLEIK",
    "ENDPOINT NAME": "EC50",
    "U": "µg/mL",
    "QUANTITATIVE READOUT": 0.0786
  }
]

Task: Provide one value: measured EC50 of human-adapted anti-TLR3 mAb HV7/LV1 (antibody, human IgG4, V domains shown, Human IgG4 (S228P, F234A, L235A), kappa; not shown: human kappa light chain constant region) VH: QVQLVQSGAEVKKPGSSVKVSCKASGGTFSTYWIHWVRQAPGQGLEWMGEINPNNGRINYNEKFKTRVTITADESTSTAYMELSSLRSEDTAVYYCARVGVMITTFPYWGRGTLVTVSS VL: DIQMTQSPSSLSASVGDRVTITCRASGNIHNYLAWYQQKPGKAPKLLIYNAKTLADGVPSRFSGSGSGTDFTLTISSLQPEDFATYYCQHFWSTPFTFGQGTKLEIK
Output: 1.47

Origin of values: patent US20060115475A1
